src = paper PMC11898488

STUDY_SYSTEM: UniProtKB P29274
Sequence (P29274 whole entry): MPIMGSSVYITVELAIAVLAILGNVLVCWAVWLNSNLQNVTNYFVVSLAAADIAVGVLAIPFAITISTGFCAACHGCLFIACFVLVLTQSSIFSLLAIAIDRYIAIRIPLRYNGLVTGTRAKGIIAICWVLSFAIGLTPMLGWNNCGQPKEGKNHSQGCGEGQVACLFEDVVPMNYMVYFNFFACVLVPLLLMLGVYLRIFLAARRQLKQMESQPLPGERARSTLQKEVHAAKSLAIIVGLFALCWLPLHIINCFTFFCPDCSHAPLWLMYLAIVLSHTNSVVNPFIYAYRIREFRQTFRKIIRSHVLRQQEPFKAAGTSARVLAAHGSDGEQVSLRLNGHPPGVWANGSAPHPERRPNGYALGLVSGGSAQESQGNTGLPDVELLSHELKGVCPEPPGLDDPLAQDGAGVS
TEST: GloSensor cAMP assay in CHO cells expressing human A2AAR
CONDITIONS: CHO cells expressing hA2AARs, GloSensor cAMP assay; mean ± standard error; read-out: IC50, inhibition of NECA-induced cAMP production
PROPERTY: pIC50
Worth noting: pIC50 values are minus log10 of concentrations stated in mol/L.

In [3]: df
Out[3]:
                                   compound  result
0  CCOc1nc2c(N)nc(OCCc3ccccc3)nc2n1CC [Compound 4, 8-ethoxy-9-ethyl-2-phenethoxyadenine]    6.56

Lookup: Given the compound CCn1c(Br)nc2c(N)nc(OCCc3ccccc3)nc21 [Compound 1, 8-bromo-9-ethyl-2-phenetoxyadenine] , what is its reported pIC50?
Found: 6.97

Lookup: Follow-up item: CCn1c(I)nc2c(N)nc(OCCc3ccccc3)nc21 [Compound 5]
Found: 6.94
